# Tested on: HT29 colon
# protocolDescription: NCI tumour cell line growth inhibition, 48 h
The reader will find reported TGI values listed item by item below.
quantityKind: TGI

INSERT INTO assay_data (compound, quantitykind, result) VALUES
  ('O=c1c(Cc2ccc(Cl)cc2)nnc2sc(-c3ccc(-c4ccc(F)c(Cl)c4)o3)nn12', 'TGI', '> 100 µM'),
  ('COc1ccc(/C=C2\CCCC(C(NO)c3ccc(OC)cc3)C2=NO)cc1 (stereo not drawn)', 'TGI', '> 100 µM'),
  ('N#CC1(O)CCCCCCCCCCC1', 'TGI', '> 100 µM');

* * *

# System: DMS 114 small cell lung
# protocolDescription: NCI tumour cell line growth inhibition, 48 h
The reader will find reported TGI values listed item by item below.
quantityKind: TGI

INSERT INTO assay_data (compound, quantitykind, result) VALUES
  ('COc1ccc(/C=C\c2cc(OC)c(O[Si](C)(C)C(C)(C)C)c(OC)c2)cc1', 'TGI', '91.4 µM'),
  ('CC(=O)OCC(OC(C)=O)C(OC(C)=O)C(OC(C)=O)C(=O)CNn1c(-c2ccccc2Cl)nc2ccccc2c1=O (stereo not drawn)', 'TGI', '> 100 µM'),
  ('COC(=O)[C@]12CCC(C)[C@H](C)[C@H]1C1=CCC3[C@@]4(C)CC[C@H](OC(C)=O)C(C)(C)C4CC[C@@]3(C)C1(C)C(O)C2 (stereo partly drawn)', 'TGI', '> 100 µM'),
  ('CCC1=NC(CO)[C@H](c2ccccc2)O1 (stereo partly drawn)', 'TGI', '> 100 µM'),
  ('Cc1ccc(-c2cc(-c3ccccc3)c(C#N)c(=O)n2C2OC(CO)C(O)C(O)C2O)cc1 (stereo not drawn)', 'TGI', '> 100 µM'),
  ('O=S(=O)(O)c1ccc(N=Nc2ccc(N=Nc3ccc(/C=C/c4ccc(N=[N+]([O-])c5ccc(/C=C/c6ccc(N=Nc7ccc(N=Nc8ccc(S(=O)(=O)O)cc8)cc7)cc6S(=O)(=O)O)c(S(=O)(=O)O)c5)cc4S(=O)(=O)O)c(S(=O)(=O)O)c3)cc2)cc1', 'TGI', '> 100 µM'),
  ('CC(=O)NC(CCCCNC(=O)NCCCl)C(=O)NCc1ccccc1 (stereo not drawn)', 'TGI', '> 100 µM'),
  ('COC(=O)c1ccccc1NC(=O)C(=O)NNC(=O)c1ccncc1', 'TGI', '> 100 µM'),
  ('COC1OC(CO)C(O)C1N (stereo not drawn)', 'TGI', '> 100 µM'),
  ('Cc1cc(C)c(C(=O)c2no[n+]([O-])c2C(=O)c2c(C)cc(C)c(Br)c2C)c(C)c1Br', 'TGI', '23.4 µM'),
  ('COC(=O)C(=O)C(C(=O)C(=O)Nc1cccc(C(C)=O)c1)c1nc2ccccc2[nH]c1=O (stereo not drawn)', 'TGI', '> 100 µM'),
  ('COC(=O)[C@@H]1CCCCC[C@H]2C(CO)=C(C)C(=O)C12 (stereo partly drawn)', 'TGI', '> 100 µM'),
  ('COC(=O)C(CC(=O)Nc1ccc(C)cc1)C(=O)C(=O)Nc1ccccc1C(C)C (stereo not drawn)', 'TGI', '> 100 µM');

* * *

The reader will find reported TGI values listed item by item below.
# Tested on: A498 renal
# protocolDescription: NCI tumour cell line growth inhibition, 48 h
quantityKind: TGI

INSERT INTO measurements (compound, quantitykind, result) VALUES
  ('Cc1c(C(=O)NCCN2CCOCC2)cn2ncnc(Oc3ccc(NC(=O)Nc4ccc(Cl)c(C(F)(F)F)c4)cc3)c12', 'TGI', '3.08 µM'),
  ('COc1ccc(Cn2cc3c(c2)-c2oncc2CC3)cc1', 'TGI', '9.74 µM'),
  ('COc1ccc(Nc2nc(N)c(C(=O)c3c[nH]c4ccccc34)s2)cc1', 'TGI', '16.3 µM'),
  ('Cc1cc(Cl)ccc1Nc1nc(C(F)(F)F)ccc1C(=O)N/N=C/c1ccc([N+](=O)[O-])cc1', 'TGI', '7.1 µM'),
  ('Cc1cc(C)nc(NS(=O)(=O)c2ccc(Nc3c4ccccc4nc4c(C(=O)N5CCN(CCOS(C)(=O)=O)CC5)cccc34)cc2)n1', 'TGI', '> 100 µM'),
  ('Cc1ccc(-c2csc(NC(=O)CN3CCN(c4cc5c(cc4F)c(=O)c(C(=O)O)cn5C4CC4)CC3)n2)cc1', 'TGI', '10.3 µM'),
  ('O=C1C(c2ccccc2)=[N+]([O-])c2ccccc21', 'TGI', '34 µM'),
  ('c1ccc2c(c1)Sc1nccc3ccnc-2c13', 'TGI', '> 100 µM'),
  ('CCC1=NC(CO)[C@H](c2ccccc2)O1 (stereo not given in full)', 'TGI', '> 100 µM'),
  ('O=c1c(Cc2ccc(Cl)cc2)nnc2sc(-c3ccc(-c4ccc(F)c(Cl)c4)o3)nn12', 'TGI', '> 100 µM');
